- Tested on: Escherichia coli
- TEST DETAILS: Antibacterial activity against Escherichia coli NCIMB 9485 after 24 hrs by serial dilution method
- Type: functional
- DETAILS: NCIMB 9485, 24 h
READOUT TYPE: MIC80 (µM)

SMILES ENTRY	OUTPUT UNIT	EXPERIMENTAL VALUE
CCN(CC)CCNC(=S)Nc1cc(C(F)(F)F)cc(C(F)(F)F)c1	µM	129
FC(F)(F)c1cc(NC(=S)Nc2ccccc2)cc(C(F)(F)F)c1	µM	103
C=C[C@H]1CN2CC[C@H]1C[C@H]2CNC(=S)Nc1cc(C(F)(F)F)cc(C(F)(F)F)c1	µM	85.8
CN(C)[C@@H]1CCCC[C@H]1NC(=S)Nc1cc(C(F)(F)F)cc(C(F)(F)F)c1	µM	90.8
CN[C@@H](CC(C)C)C(=O)N[C@H]1C(=O)N[C@@H](CC(N)=O)C(=O)N[C@H]2C(=O)N[C@H]3C(=O)N[C@H](C(=O)N[C@@H](C(=O)O)c4cc(O)cc(O)c4-c4cc3ccc4O)[C@H](O)c3ccc(c(Cl)c3)Oc3cc2cc(c3O[C@H]2O[C@@H](CO)[C@H](O)[C@@H](O)[C@@H]2O[C@@H]2C[C@@](C)(N)[C@@H](O)[C@@H](C)O2)Oc2ccc(cc2Cl)[C@H]1O	µM	2.1
C=C[C@H]1CN2CC[C@H]1C[C@H]2[C@@H](NC(=S)Nc1cc(C(F)(F)F)cc(C(F)(F)F)c1)c1ccnc2ccc(OC)cc12	µM	5.26

###

- TEST DETAILS: Toxicity in sixth development stage of Galleria mellonella larvae assessed as survival rate at 1 ug/ml after 48 hrs
- Format: organism-based
- DETAILS: in vivo
READOUT TYPE: survival at 48 h (%)

In [3]: df
Out[3]:
                               smiles_entry  output_unit  experimental_value
0  CCN(CC)CCNC(=S)Nc1cc(C(F)(F)F)cc(C(F)(F)F)c1            %                 100
1  C=C[C@H]1CN2CC[C@H]1C[C@H]2[C@@H](NC(=S)Nc1ccccc1)c1ccnc2ccc(OC)cc12            %                 100
2  C=C[C@H]1CN2CC[C@H]1C[C@H]2[C@@H](NC(=S)Nc1cc(C(F)(F)F)cc(C(F)(F)F)c1)c1ccnc2ccc(OC)cc12            %                  97
3  C=C[C@H]1CN2CC[C@H]1C[C@H]2[C@@H](NC(=S)Nc1cc(C(F)(F)F)cc(C(F)(F)F)c1)c1ccnc2ccccc12            %                 100
4  C=C[C@H]1CN2CC[C@H]1C[C@H]2CNC(=S)Nc1cc(C(F)(F)F)cc(C(F)(F)F)c1            %                 100
5  FC(F)(F)c1cc(NC(=S)Nc2ccccc2)cc(C(F)(F)F)c1            %                 100

###

- Test system: Staphylococcus aureus
- TEST DETAILS: Antibacterial activity against Staphylococcus aureus NCIMB 12702 after 24 hrs by serial dilution method
- Format: functional
- DETAILS: Staphylococcus aureus, NCIMB 12702, 24 h

MOLECULE	OUTPUT UNIT	MEASUREMENT QUALIFIER	MIC90
C=C[C@H]1CN2CC[C@H]1C[C@H]2[C@@H](NC(=S)Nc1cc(C(F)(F)F)cc(C(F)(F)F)c1)c1ccnc2ccccc12	µM	=	16.6
C=C[C@H]1CN2CC[C@H]1C[C@H]2[C@@H](NC(=S)Nc1ccccc1)c1ccnc2ccc(OC)cc12	µM	=	164
C=CC1CN2CCC1CC2[C@H](OCc1ccccc1)c1ccnc2ccc(OC)cc12 (some centres not stated)	µM	>	200
CCNC(=S)Nc1cc(C(F)(F)F)cc(C(F)(F)F)c1	µM	>	316
FC(F)(F)c1cc(NC(=S)Nc2ccccc2)cc(C(F)(F)F)c1	µM	>	275
CCN(CC)CCNC(=S)Nc1cc(C(F)(F)F)cc(C(F)(F)F)c1	µM	=	194
CCC1CN2CCC1C[C@@H]2[C@@H](Oc1nc(-c2ccccc2)nc(O[C@@H](c2ccnc3ccc(OC)cc23)[C@H]2CC3CCN2CC3CC)c1-c1ccccc1)c1ccnc2ccc(OC)cc12 (some centres not stated)	µM	>	200
CN[C@@H](CC(C)C)C(=O)N[C@H]1C(=O)N[C@@H](CC(N)=O)C(=O)N[C@H]2C(=O)N[C@H]3C(=O)N[C@H](C(=O)N[C@@H](C(=O)O)c4cc(O)cc(O)c4-c4cc3ccc4O)[C@H](O)c3ccc(c(Cl)c3)Oc3cc2cc(c3O[C@H]2O[C@@H](CO)[C@H](O)[C@@H](O)[C@@H]2O[C@@H]2C[C@@](C)(N)[C@@H](O)[C@@H](C)O2)Oc2ccc(cc2Cl)[C@H]1O	µM	=	4.21
C=CC1CN2CCC1CC2[C@@H](Oc1cc(C)c2ccccc2n1)c1ccnc2ccc(OC)cc12 (some centres not stated)	µM	=	115
C=C[C@H]1CN2CC[C@H]1C[C@H]2[C@@H](NC(=S)Nc1cc(C(F)(F)F)cc(C(F)(F)F)c1)c1ccnc2ccc(OC)cc12	µM	=	10.5
COC(=O)[C@@H]1C[C@H](NC(=S)Nc2cc(C(F)(F)F)cc(C(F)(F)F)c2)CN1	µM	>	200
C=C[C@H]1CN2CC[C@H]1C[C@H]2[C@@H](N)c1ccnc2ccc(OC)cc12	µM	>	309
CCC1CN2CCC1C[C@@H]2[C@@H](Oc1nnc(O[C@@H](c2ccnc3ccc(OC)cc23)[C@H]2CC3CCN2CC3CC)c2ccccc12)c1ccnc2ccc(OC)cc12 (some centres not stated)	µM	=	189
CCC1CN2CCC1CC2[C@@H](Oc1cc2ccccc2c2ccccc12)c1ccnc2ccc(OC)cc12 (some centres not stated)	µM	>	200
C=C[C@H]1CN2CC[C@H]1C[C@H]2CNC(=S)Nc1cc(C(F)(F)F)cc(C(F)(F)F)c1	µM	=	85.8
FC(F)(F)c1cc(NC(=S)NC2CCCCC2)cc(C(F)(F)F)c1	µM	>	270
CCC1CN2CCC1CC2[C@@H](OC(=O)c1ccc(Cl)cc1)c1ccnc2ccc(OC)cc12 (some centres not stated)	µM	=	79.4

###

- TEST DETAILS: Toxicity in sixth development stage of Galleria mellonella larvae assessed as survival rate at 1 ug/ml after 72 hrs
- Format: organism-based
- DETAILS: in vivo
READOUT TYPE: survival at 72 h (%)

                               smiles_entry  experimental_value
0  C=C[C@H]1CN2CC[C@H]1C[C@H]2[C@@H](NC(=S)Nc1cc(C(F)(F)F)cc(C(F)(F)F)c1)c1ccnc2ccccc12                 100
1  C=C[C@H]1CN2CC[C@H]1C[C@H]2[C@@H](NC(=S)Nc1ccccc1)c1ccnc2ccc(OC)cc12                 100
2  C=C[C@H]1CN2CC[C@H]1C[C@H]2CNC(=S)Nc1cc(C(F)(F)F)cc(C(F)(F)F)c1                 100
3  CCN(CC)CCNC(=S)Nc1cc(C(F)(F)F)cc(C(F)(F)F)c1                 100
4  FC(F)(F)c1cc(NC(=S)Nc2ccccc2)cc(C(F)(F)F)c1                 100
5  C=C[C@H]1CN2CC[C@H]1C[C@H]2[C@@H](NC(=S)Nc1cc(C(F)(F)F)cc(C(F)(F)F)c1)c1ccnc2ccc(OC)cc12                  97
